pIC50: −log10 of the molar value.
Listing of pIC50 toward BTK (Homo sapiens), each taken from a published source.

Would you kindly share the measured pIC50 for C=CC(=O)N1CC[C@@H](Nc2cc(CN3CCOCC3)cc(Nc3ncc(C)s3)n2)C1 ? 7.56

Would you kindly share the measured pIC50 for Cc1c(NCC(=O)NC2CCCN(c3ncnc4[nH]ccc34)C2)cccc1C(F)(F)F (stereo not shown) ? 6.00 to 7.00

Would you kindly share the measured pIC50 for CC(C)c1ccccc1N[C@@H](C(=O)N[C@@H]1CCCN(c2ncnc3[nH]ncc23)C1)C1CC1 ? 6.00 to 7.00

Then there is this compound:
Would you kindly share the measured pIC50 for Cc1cc(-c2ccnc(Nc3cnn4c3CCC4)n2)ccc1CNC(=O)N1CCC(C(C)(C)C)C1 (stereo not shown) ? > 8.00

###

Listing of IC50 toward BTK (Homo sapiens, UniProt Q06187), each taken from a published source.

Notebook: pull reported IC50 for BTK (Homo sapiens, UniProt Q06187), entry CCOc1cccc(NCC(=O)N[C@@H]2CCCN(c3ncnc4[nH]ccc34)C2)c1 0.1 to 0.999 µM

Notebook: pull reported IC50 for BTK (Homo sapiens, UniProt Q06187), entry COc1ncc(-c2cnc3[nH]cc(C(=O)c4c(F)ccc(NS(=O)(=O)c5ccccc5F)c4F)c3c2)cn1 ≤ 10 µM

Notebook: pull reported IC50 for BTK (Homo sapiens, UniProt Q06187), entry Cc1cc(-c2ccnc(Nc3cnn(C)c3)n2)ccc1CNC(=O)c1cn2c(n1)CCCC2 0.1 to 0.999 µM

Then there is this compound:
Notebook: pull reported IC50 for BTK (Homo sapiens, UniProt Q06187), entry CC(=O)Nc1cc(NC2CCCN(C(=O)CNc3cc(Cl)cc(Cl)c3)C2)ncn1 (stereo not shown) 1 to 10 µM

###

pIC50: −log10 of the molar value.
Listing of pIC50 toward BTK (Homo sapiens), each taken from a published source.

Notebook: pull reported pIC50 for BTK (Homo sapiens), entry C=CC(=O)Nc1cc(Oc2ncnc3[nH]c(-c4ccc(N5CCN(C)CC5)cc4)cc23)ccc1F > 7.00

Notebook: pull reported pIC50 for BTK (Homo sapiens), entry C=CC(=O)N1CCC[C@H](c2c(F)c(F)c(C(N)=O)c3[nH]c(C)c(F)c23)C1 > 8.00

Notebook: pull reported pIC50 for BTK (Homo sapiens), entry COc1ccc(Oc2ccc(-c3nc4n(c3C(N)=O)NCCC4C3CCN(C(=O)/C=C/C(F)(F)F)CC3)cc2)cc1 (stereo not drawn) 6.67

Notebook: pull reported pIC50 for BTK (Homo sapiens), entry O=C(NCc1ccc(-c2ncnc3[nH]ccc23)cc1)c1cn2c(n1)CCC2 5.00 to 6.00

Notebook: pull reported pIC50 for BTK (Homo sapiens), entry COc1c(-c2ccc(Oc3ccccc3)cc2)c2c(N)ncnc2n1[C@@H]1CCN(C(=O)/C=C/CN(C)C2CC2)C1 > 7.00

Next:
Notebook: pull reported pIC50 for BTK (Homo sapiens), entry C=CC(=O)N1CC2CC1C(n1nc(-c3ccc(Oc4cccc(F)c4)cc3)c3c(N)ncnc31)C2 (stereo not drawn) 8.36

Notebook: pull reported pIC50 for BTK (Homo sapiens), entry C=CC(=O)N1CCC[C@@H](c2c(F)cc(C(N)=O)c3[nH]c(C)c(C(F)F)c23)C1 ≤ 7.00

Notebook: pull reported pIC50 for BTK (Homo sapiens), entry Cc1cc(-c2cc(Nc3cc4n(n3)CCCN(CCO)C4)ncn2)ccc1CNC(=O)c1cnn(C(C)(C)C)c1 > 8.00

Notebook: pull reported pIC50 for BTK (Homo sapiens), entry CC1C(Nc2ncnc3[nH]ncc23)CCCN1C(=O)[C@H](Nc1cc(Cl)cc(Cl)c1)C1CC1 (stereo partly drawn) > 7.00

Notebook: pull reported pIC50 for BTK (Homo sapiens), entry C=CC(=O)N1CCC[C@@H](n2nc(-c3ccc(Oc4ccccc4)c(F)c3)c3cncnc32)C1 > 7.00

Notebook: pull reported pIC50 for BTK (Homo sapiens), entry CC(C)(O)c1cn2cc(NC(=O)c3coc(-c4ccnc(N)c4)n3)c(-c3ccccc3)cc2n1 8.28

Notebook: pull reported pIC50 for BTK (Homo sapiens), entry O=C(CNC(=O)c1ccc(Cl)cc1)NC1CCCN(c2ncnc3[nH]ccc23)C1 (stereo not drawn) 5.00 to 6.00

Notebook: pull reported pIC50 for BTK (Homo sapiens), entry O=C(CNc1cc(F)cc(Cl)c1)N1CCC[C@@H](Nc2ncnc3[nH]ncc23)C1 6.00 to 7.00

Notebook: pull reported pIC50 for BTK (Homo sapiens), entry C=CC(=O)N1C(c2nc(-c3ccc(C(=O)Nc4cc(C(F)(F)F)ccn4)cc3)c3c(N)nccn23)CC2CC21 (stereo not drawn) 7.16

Notebook: pull reported pIC50 for BTK (Homo sapiens), entry Cc1ccn(-c2ccc(N3CCOCC3)cc2)c(=O)c1-c1ccc2nc(Nc3cccc(N)c3)ncc2c1 6.00 to 7.00

###

Listing of IC50 toward BTK (Homo sapiens, UniProt Q06187), each taken from a published source.

Use the examples below as a reference point.
Would you kindly share the measured IC50 for O=C(c1ccc(Cl)cc1)c1c[nH]c2ncc(-c3cccnc3)cc12 ? ≤ 10000 nM

Would you kindly share the measured IC50 for C=CC(=O)N1CC[C@]2(C1)C[C@H](n1c(NC(=O)c3ccc(C(F)(F)CO)s3)nc3ccccc31)C2 ? 1.06 nM

Would you kindly share the measured IC50 for CNC(=O)c1ccc(-c2cn3ncc4c3nc2NCc2cc(F)cnc2O[C@@H](C)CNC4=O)cc1 ? > 10000 nM

Next:
Would you kindly share the measured IC50 for Cn1cc(-c2cc3c(-c4ccc5c(c4)CCCCC5NC(=O)c4cnc(C(C)(C)C)s4)ncnc3[nH]2)cn1 (stereo not drawn) ? < 10 nM

Would you kindly share the measured IC50 for CN(c1ncnc2[nH]ncc12)[C@@H]1CCN(C(=O)CNc2cc(Cl)cc(Cl)c2)C1 ? 1000 to 10000 nM

Would you kindly share the measured IC50 for CN(C(=O)/C=C/CN(C)C1CCC1)c1cccc(-n2c(=O)n(-c3ccc(Oc4ccccc4)cc3)c3c(N)ncnc32)c1 ? < 100 nM

Would you kindly share the measured IC50 for C=CC(=O)N1CC[C@]2(C1)C[C@H](n1c(NC(=O)c3ccc(-c4cc[nH]c(=O)c4)s3)nc3ccccc31)C2 ? 0.33 nM

Would you kindly share the measured IC50 for CC(C)(C)OC1CN(C(=O)NCc2ccc(-c3ccnc(Nc4cnn(C5CC5)c4)n3)cc2C(F)(F)F)C1 ? < 10 nM

###

Listing of IC50 toward UniProt:Q06187, each taken from a published source.
quantity.measured: IC50 (µM)

Would you kindly share the measured IC50 for Cc1ccc2c(N)c(C(N)=O)nnc2c1-c1ccc2c(F)n[nH]c2c1 ? 0.0251

[a] C=CC(=O)N1C2C[C@@H](C1c1nc(-c3ccc(C(C)(O)c4ccccc4)cc3)c3c(N)nccn13)N(C)C2 (stereo partly shown)
[b] C=CC(=O)N1CC[C@]2(C1)C[C@H](n1c(NC(=O)c3ccns3)nc3ccccc31)C2
For the two items a and b , which reports the higher IC50 value? // output: label of the selected item a
(a: 0.051 µM, b: 0.00144 µM)

###

Listing of pIC50 toward UniProt:Q06187, each taken from a published source.
pIC50: −log10 of the molar value.
quantity.measured: pIC50

[A] CCOc1cc(C(=O)Nc2cc(C(F)(F)F)ccn2)ccc1-c1nc(C2(CC)CCC3CCN(CC)C(=O)N3C2)n2ccnc(N)c12 (single isomer, unassigned)
[B] C=CC(=O)Nc1cccc(-c2cc(Cc3ccccc3)cc(Nc3cc(-c4ccc(Oc5ccccc5)cc4)[nH]n3)n2)c1
Please indicate which has the smaller reported pIC50: A , or B . // output: label of the selected item A

[1] C=CC(=O)N1CC2(CC2)C[C@H]1c1nc(-c2ccccc2C(=O)Nc2ccccn2)c2c(N)nccn12
[2] C=CC(=O)N1C2CC[C@@H](C2)C1c1nc(-c2ccc(C(=O)Nc3cc(Cl)ccn3)cc2)c2c(N)nccn12 (some centres unmarked)
For the two items 1 and 2 , which reports the higher pIC50 value? // output: label of the selected item 2

[A] C=CC(=O)N1C[C@@H]2C[C@H]1[C@@H](n1nc(-c3ccc(C(=O)NC)cc3F)c3c(N)ncnc31)C2
[B] [2H]c1c([2H])c([2H])c(-c2cc3nc(CCC(C)(C)O)cn3cc2NC(=O)c2coc(-c3ccnc(C)c3)n2)c([2H])c1[2H]
Please indicate which has the smaller reported pIC50: A , or B . // output: label of the selected item A
(A: 7.11, B: 7.69)

###

Listing of pIC50 toward BTK (Homo sapiens), each taken from a published source.
pIC50: −log10 of the molar value.
quantity.measured: pIC50

Use the examples below as a reference point.
Would you kindly share the measured pIC50 for Nc1ncnc2c1c(-c1ccc(Oc3ccccc3)cc1)nn2C1CC2CC1N(C(=O)/C=C/CN1CCCCC1)C2 (stereo not drawn) ? 8.82

Would you kindly share the measured pIC50 for C=CC(=O)N1CC(Nc2cncc(-c3cnc(Nc4cccc(C)n4)nc3)n2)C1 ? 8.25

Would you kindly share the measured pIC50 for Cc1ncc(COc2cc(F)cc(Oc3ccc(-c4nn(C[C@H]5CCCN5C#N)c5ncnc(N)c45)cc3)c2)cn1 ? 7.12

[1] C[C@H]1CN(C2COC2)CCN1c1ccc(Nc2cc(-c3ccnc(N4CCn5c6c(c(OC7CC7)c5C4=O)CC(C)(C)C6)c3CO)cn(C)c2=O)nc1
[2] C=CC(=O)N1CCC[C@@H](n2nc(-c3ccc(C(=O)Nc4ccccn4)cc3)c3c(N)ncc(I)c32)C1
Please indicate which has the smaller reported pIC50: 1 , or 2 . // output: label of the selected item 2
(2: 7.97, 1: 9.29)
